Overview of reported IC50 across a group of molecules:
assay_system: human TRPM2 channels (Homo sapiens, UniProt O94759)
Sequence (O94759 whole entry): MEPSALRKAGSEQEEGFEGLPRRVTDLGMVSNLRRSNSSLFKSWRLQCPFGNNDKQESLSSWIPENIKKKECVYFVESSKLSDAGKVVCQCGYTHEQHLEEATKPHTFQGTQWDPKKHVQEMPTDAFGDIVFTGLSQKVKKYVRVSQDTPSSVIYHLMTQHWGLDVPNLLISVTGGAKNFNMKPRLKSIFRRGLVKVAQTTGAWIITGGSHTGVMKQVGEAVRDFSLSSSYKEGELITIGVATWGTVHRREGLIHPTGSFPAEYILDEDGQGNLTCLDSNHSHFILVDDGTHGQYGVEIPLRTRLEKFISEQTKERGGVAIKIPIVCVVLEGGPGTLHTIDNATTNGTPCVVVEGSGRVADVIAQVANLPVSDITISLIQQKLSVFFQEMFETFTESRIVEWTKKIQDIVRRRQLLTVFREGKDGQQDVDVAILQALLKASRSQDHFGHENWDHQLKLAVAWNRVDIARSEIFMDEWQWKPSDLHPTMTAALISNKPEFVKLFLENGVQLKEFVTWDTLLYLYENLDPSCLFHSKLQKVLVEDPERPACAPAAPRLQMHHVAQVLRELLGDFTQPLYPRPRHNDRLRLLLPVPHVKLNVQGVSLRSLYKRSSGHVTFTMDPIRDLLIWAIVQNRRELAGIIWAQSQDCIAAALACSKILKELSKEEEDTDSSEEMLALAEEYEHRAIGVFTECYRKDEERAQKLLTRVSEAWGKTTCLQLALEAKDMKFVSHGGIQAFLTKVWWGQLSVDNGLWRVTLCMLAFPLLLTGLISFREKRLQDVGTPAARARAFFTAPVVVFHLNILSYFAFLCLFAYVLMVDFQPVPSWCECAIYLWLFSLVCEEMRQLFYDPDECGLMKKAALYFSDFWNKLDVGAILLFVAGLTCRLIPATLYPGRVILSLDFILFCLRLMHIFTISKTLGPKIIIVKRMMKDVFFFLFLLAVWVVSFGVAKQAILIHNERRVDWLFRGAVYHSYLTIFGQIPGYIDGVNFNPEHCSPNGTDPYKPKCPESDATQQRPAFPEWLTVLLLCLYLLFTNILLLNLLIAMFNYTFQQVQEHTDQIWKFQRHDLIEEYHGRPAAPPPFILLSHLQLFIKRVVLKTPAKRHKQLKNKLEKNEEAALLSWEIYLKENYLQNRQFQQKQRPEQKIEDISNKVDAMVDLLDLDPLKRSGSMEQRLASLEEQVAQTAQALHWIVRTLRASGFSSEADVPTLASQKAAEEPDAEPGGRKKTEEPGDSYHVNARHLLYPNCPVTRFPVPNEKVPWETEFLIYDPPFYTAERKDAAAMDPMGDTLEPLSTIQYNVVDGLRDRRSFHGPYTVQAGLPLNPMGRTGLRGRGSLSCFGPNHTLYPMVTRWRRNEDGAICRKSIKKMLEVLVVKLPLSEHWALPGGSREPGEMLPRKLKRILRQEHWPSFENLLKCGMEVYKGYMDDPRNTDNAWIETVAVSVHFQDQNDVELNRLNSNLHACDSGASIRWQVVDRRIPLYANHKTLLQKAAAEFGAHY
assay_details: whole cell patch clamp, inhibition of TRPM2 channel current
stated_conditions: HEK293 cells stably expressing human TRPM2, 500 μM ADPR
Structures can show the parent of a compound that is named as a salt.

{"columns": ["molecule", "IC50"],
 "data": [
  ["CCN(C)C(=O)c1cc(C(=O)c2ccccc2)n2cccc2c1", "1 to 10 µM"],
  ["CCN(CC)C(=O)c1cc(C(=O)c2ccccn2)n2cccc2c1 [II-38, hydrochloride]", "20 to 50 µM"],
  ["COC(=O)c1cc(C(=O)c2ccco2)n2cccc2c1", "1 to 10 µM"],
  ["COC(=O)c1cc(C(=O)c2ccc(C)cc2)n2ccnc2c1", "10 to 20 µM"],
  ["CCNC(=O)c1cc(C(=O)c2ccccc2)n2ccnc2c1", "1 to 10 µM"],
  ["CCOC(=O)c1cc(C(=O)c2ccccc2)n2cccc2c1", "1 to 10 µM"],
  ["COC(=O)c1cc(C(=O)c2cccc(F)c2)n2cccc2c1", "1 to 10 µM"],
  ["CC(=O)c1cc(C(=O)c2ccccc2)n2cccc2c1 [II-3, 1-(5-Benzimide-7-yl) ethane-1-ketone]", "10 to 20 µM"]
]}

Inquiry: Provide IC50, tested on human TRPM2 channels (Homo sapiens, UniProt O94759), for `O=C(c1ccccc1)c1cc(C(=O)N2CCCCC2)cc2cccn12` .
Reply text: 10 to 20 µM

Inquiry: Name the recorded IC50 of `O=C(O)c1cc(C(=O)c2ccccc2)n2ccnc2c1` , assay system human TRPM2 channels (Homo sapiens, UniProt O94759).
Reply text: 10 to 20 µM

----------
Catalogue of IC50 readings, one per entry.
assay_system: human TRPM2 channels (Homo sapiens, UniProt O94759)
assay_details: whole cell patch clamp, inhibition of TRPM2 channel current
stated_conditions: HEK293 cells stably expressing human TRPM2, 500 μM ADPR

As a guide, the following entries are already answered.
{"columns": ["compound", "result"],
 "data": [
  ["CON(C)C(=O)c1cc(C(=O)c2ccccc2)n2cccc2c1 [II-25]", "1 to 10 µM"],
  ["O=C(c1ccccc1)c1cc(C(=O)N2CCC2)cc2cccn12 [II-26]", "1 to 10 µM"]
]}

Please look at the following compound next.
Inquiry: # return recorded IC50 for entry CCN(CC)C(=O)c1cc(C(=O)c2ccccc2)n2cccc2c1 [II-23]
Reply text: 1 to 10 µM

----------
assay_system: human TRPM2 channels (Homo sapiens, UniProt O94759)
assay_details: whole cell patch clamp, inhibition of TRPM2 channel current
stated_conditions: HEK293 cells stably expressing human TRPM2, 500 μM ADPR
pIC50: −log10 of the molar value.
Reported pIC50 values follow for various molecules

{"columns": ["molecule", "pIC50"],
 "data": [
  ["CCN(CC)C(=O)c1cc(C(OC(C)=O)c2ccccc2)n2cccc2c1 (centres unmarked)", "4.70 to 5.00"],
  ["O=C(O)c1cc(C(O)c2ccccc2)n2cccc2c1 (centres unmarked)", "4.70 to 5.00"],
  ["CCN(C)C(=O)c1cc(C(O)c2ccccc2)n2cccc2c1 (centres unmarked)", "4.70 to 5.00"],
  ["O=C(c1ccccc1)c1cc(C(=O)N2CCCCC2)cc2nccn12", "4.70 to 5.00"]
]}

The record that follows has no pIC50 shown yet.
Inquiry: Indicate its recorded pIC50; the molecule in question is CCOC(=O)c1cc(C(=O)c2ccccn2)n2cccc2c1 [II-18, 5-methylpyridinimide-7-ethyl carboxylate]
Reply text: 5.00 to 6.00
